Cited source: patent US8110596B2

target_or_system: Glu-plg (Homo sapiens)
Construct: 0.1 mM VLK-pNA, 50 nM Glu-plg and 50 U/ml u-PA
assay_overview: Plasminogen (plg) activation enhancing activity by urokinase catalysis, VLK-pNA chromogenic assay (Example 30, Table 24)
Assay type: biochemical
test_settings: concentration giving 10-fold enhancement of plasminogen activation vs control without SMTP compound (=1); 0.1 mM VLK-pNA, 50 nM Glu-plg, 50 U/ml u-PA, 37° C.
endpoint: 10-Fold enhancing activity: Concentration by mole
For clarity, give the value followed by its unit.

Case CC(C)=CCC/C(C)=C/CC[C@]1(C)Oc2c(c(O)cc3c2CN([C@@H](C(=O)O)c2ccccc2)C3=O)C[C@@H]1O , Glu-plg (Homo sapiens), 10-Fold enhancing activity: Concentration by mole recorded as 104 μM

Case CC(C)=CCC/C(C)=C/CC[C@]1(C)Oc2c(c(O)cc3c2CN(c2ccc(O)cc2C(=O)O)C3=O)C[C@@H]1O , Glu-plg (Homo sapiens), 10-Fold enhancing activity: Concentration by mole recorded as 127 μM

Case CC(C)=CCC/C(C)=C/CC[C@]1(C)Oc2c(c(O)cc3c2CN(c2ccccc2C(=O)O)C3=O)C[C@@H]1O , Glu-plg (Homo sapiens), 10-Fold enhancing activity: Concentration by mole recorded as 133 μM

Case CC(C)=CCC/C(C)=C/CC[C@]1(C)Oc2c(c(O)cc3c2CN(c2ccc(S(=O)(=O)O)cc2)C3=O)C[C@@H]1O , Glu-plg (Homo sapiens), 10-Fold enhancing activity: Concentration by mole recorded as 137 μM

Case CC(C)=CCC/C(C)=C/CC[C@]1(C)Oc2c(c(O)cc3c2CN(CCC[C@@H](C(=O)O)N2Cc4c(cc(O)c5c4O[C@@](C)(CC/C=C(\C)CCC=C(C)C)[C@@H](O)C5)C2=O)C3=O)C[C@@H]1O [Orniplabin, reference compound] , Glu-plg (Homo sapiens), 10-Fold enhancing activity: Concentration by mole recorded as 65 μM

###

target_or_system: Glu-plg (Homo sapiens, UniProt P00747)
Construct: 0.1 mM VLK-pNA, 50 nM Glu-plg and 50 U/ml u-PA
Sequence (P00747 20-810 limits assumed): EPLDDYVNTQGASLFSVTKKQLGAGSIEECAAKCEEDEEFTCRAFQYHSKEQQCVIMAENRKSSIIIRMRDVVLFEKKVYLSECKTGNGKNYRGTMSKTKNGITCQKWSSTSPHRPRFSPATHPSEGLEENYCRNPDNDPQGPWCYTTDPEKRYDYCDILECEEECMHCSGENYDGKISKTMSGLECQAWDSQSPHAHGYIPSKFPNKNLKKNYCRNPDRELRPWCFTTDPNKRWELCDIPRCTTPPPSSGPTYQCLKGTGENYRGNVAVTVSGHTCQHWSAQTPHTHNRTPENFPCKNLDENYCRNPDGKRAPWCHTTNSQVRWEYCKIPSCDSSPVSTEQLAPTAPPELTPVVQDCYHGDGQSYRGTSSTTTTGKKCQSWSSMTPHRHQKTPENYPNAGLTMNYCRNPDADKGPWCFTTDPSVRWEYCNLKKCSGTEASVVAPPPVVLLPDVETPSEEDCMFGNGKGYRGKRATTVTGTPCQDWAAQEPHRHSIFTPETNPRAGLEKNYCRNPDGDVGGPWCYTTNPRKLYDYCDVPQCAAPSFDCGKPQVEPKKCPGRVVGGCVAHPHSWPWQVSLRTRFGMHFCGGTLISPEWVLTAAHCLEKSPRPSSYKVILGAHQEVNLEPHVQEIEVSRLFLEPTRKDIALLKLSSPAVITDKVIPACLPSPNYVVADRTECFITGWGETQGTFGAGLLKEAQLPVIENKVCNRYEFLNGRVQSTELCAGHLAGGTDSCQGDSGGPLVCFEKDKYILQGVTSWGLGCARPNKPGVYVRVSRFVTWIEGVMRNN
assay_overview: Plasminogen (plg) activation enhancing activity by urokinase catalysis, VLK-pNA chromogenic assay (Example 30, Table 24)
Type: biochemical
test_settings: fold enhancement of plasminogen activation at maximum, control without SMTP compound = 1
Measured Maximum enhancing activity: Multiplication factor of individual entries
Respond with the number and no other words.

CC(C)=CCC/C(C)=C/CC[C@]1(C)Oc2c(c(O)cc3c2CN(CCC[C@@H](C(=O)O)N2Cc4c(cc(O)c5c4O[C@@](C)(CC/C=C(\C)CCC=C(C)C)[C@@H](O)C5)C2=O)C3=O)C[C@@H]1O [Orniplabin, reference compound]
100
CC(C)=CCC/C(C)=C/CC[C@]1(C)Oc2c(c(O)cc3c2CN(c2ccc(O)cc2C(=O)O)C3=O)C[C@@H]1O [Compound I-11]
65
CC(C)=CCC/C(C)=C/CC[C@]1(C)Oc2c(c(O)cc3c2CN(c2ccc(O)c(C(=O)O)c2)C3=O)C[C@@H]1O [Compound I-9]
8
CC(C)=CCC/C(C)=C/CC[C@]1(C)Oc2c(c(O)cc3c2CN([C@@H](C(=O)O)c2ccccc2)C3=O)C[C@@H]1O [Compound I-21]
44

Could you now consider this next compound?
Sample CC(C)=CCC/C(C)=C/CC[C@]1(C)Oc2c(c(O)cc3c2CN([C@H](C(=O)O)c2ccccc2)C3=O)C[C@@H]1O [Compound I-20] ; Maximum enhancing activity: Multiplication factor observed: 402

###

target_or_system: Glu-plg (Homo sapiens, UniProt P00747)
Construct: 0.1 mM VLK-pNA, 50 nM Glu-plg and 50 U/ml u-PA
assay_overview: Plasminogen (plg) activation enhancing activity by urokinase catalysis, VLK-pNA chromogenic assay (Example 30, Table 24)
Assay type: biochemical
test_settings: concentration at which enhancement of plasminogen activation reaches the maximum
endpoint: Maximum enhancing activity: Concentration by weight (µg/mL)
Reply numerically in µg/mL, unit not repeated.

Below: 3 molecules and their reported Maximum enhancing activity: Concentration by weight.
CC(C)=CCC/C(C)=C/CC[C@]1(C)Oc2c(c(O)cc3c2CN(c2ccc(S(=O)(=O)O)cc2)C3=O)C[C@@H]1O [Compound I-19]
163
CC(C)=CCC/C(C)=C/CC[C@]1(C)Oc2c(c(O)cc3c2CN(c2ccccc2C(=O)O)C3=O)C[C@@H]1O [Compound I-4]
101
CC(C)=CCC/C(C)=C/CC[C@]1(C)Oc2c(c(O)cc3c2CN([C@@H](C(=O)O)c2ccc(O)cc2)C3=O)C[C@@H]1O [Compound I-23]
215

Sample CC(C)=CCC/C(C)=C/CC[C@]1(C)Oc2c(c(O)cc3c2CN([C@@H](Cc2ccc(O)cc2)C(=O)O)C3=O)C[C@H]1O [Compound I-26] ; Maximum enhancing activity: Concentration by weight observed: 110

Sample CC(C)=CCC/C(C)=C/CC[C@]1(C)Oc2c(c(O)cc3c2CN(c2cc(C(=O)O)ccc2O)C3=O)C[C@@H]1O [Compound I-10] ; Maximum enhancing activity: Concentration by weight observed: 151

Sample CC(C)=CCC/C(C)=C/CC[C@]1(C)Oc2c(c(O)cc3c2CN(c2ccc(C(=O)O)c(O)c2)C3=O)C[C@@H]1O [Compound I-5] ; Maximum enhancing activity: Concentration by weight observed: 101

###

Measured Maximum enhancing activity: Concentration by mole of individual entries
target_or_system: Glu-plg (Homo sapiens)
Construct: 0.1 mM VLK-pNA, 50 nM Glu-plg and 50 U/ml u-PA
assay_overview: Plasminogen (plg) activation enhancing activity by urokinase catalysis, VLK-pNA chromogenic assay (Example 30, Table 24)
Assay type: biochemical
test_settings: concentration at which enhancement of plasminogen activation reaches the maximum
Reply numerically in µM, unit not repeated.

CC(C)=CCC/C(C)=C/CC[C@]1(C)Oc2c(c(O)cc3c2CN(c2ccc(O)c(C(=O)O)c2)C3=O)C[C@@H]1O [Compound I-9]
120
CC(C)=CCC/C(C)=C/CC[C@]1(C)Oc2c(c(O)cc3c2CN(CCC[C@@H](C(=O)O)N2Cc4c(cc(O)c5c4O[C@@](C)(CC/C=C(\C)CCC=C(C)C)[C@@H](O)C5)C2=O)C3=O)C[C@@H]1O [Orniplabin, reference compound]
90
CC(C)=CCC/C(C)=C/CC[C@]1(C)Oc2c(c(O)cc3c2CN(c2cc(C(=O)O)ccc2O)C3=O)C[C@@H]1O [Compound I-10]
290
CC(C)=CCC/C(C)=C/CC[C@]1(C)Oc2c(c(O)cc3c2CN(c2c(O)cccc2C(=O)O)C3=O)C[C@@H]1O [Compound I-7]
290
CC(C)=CCC/C(C)=C/CC[C@]1(C)Oc2c(c(O)cc3c2CN([C@@H](C(=O)O)c2ccccc2)C3=O)C[C@@H]1O [Compound I-21]
289

Could you now consider this next compound?
Sample CC(C)=CCC/C(C)=C/CC[C@]1(C)Oc2c(c(O)cc3c2CN(c2cccc(C(=O)O)c2O)C3=O)C[C@@H]1O [Compound I-8] ; Maximum enhancing activity: Concentration by mole observed: 100

###

target_or_system: Glu-plg (Homo sapiens, UniProt P00747)
Construct: 0.1 mM VLK-pNA, 50 nM Glu-plg and 50 U/ml u-PA
assay_overview: Plasminogen (plg) activation enhancing activity by urokinase catalysis, VLK-pNA chromogenic assay (Example 30, Table 24)
Format: biochemical
test_settings: concentration giving 10-fold enhancement of plasminogen activation vs control without SMTP compound (=1); 0.1 mM VLK-pNA, 50 nM Glu-plg, 50 U/ml u-PA, 37° C.
Quick rule: 10-Fold enhancing activity: Concentration by weight of at least 100 μg/ml means Met, below that means Not met.

Take a look at these entries with their results.
CC(C)=CCC/C(C)=C/CC[C@]1(C)Oc2c(c(O)cc3c2CN(c2ccc(C(=O)O)cc2)C3=O)C[C@@H]1O
Not met
CC(C)=CCC/C(C)=C/CC[C@]1(C)Oc2c(c(O)cc3c2CN([C@H](C(=O)O)c2cccc(O)c2)C3=O)C[C@@H]1O (racemic)
Met
CC(C)=CCC/C(C)=C/CC[C@]1(C)Oc2c(c(O)cc3c2CN(c2ccccc2C(=O)O)C3=O)C[C@@H]1O
Not met

From here, focus on the item given below.
Tell me whether 10-Fold enhancing activity: Concentration by weight is at least 100 μg/ml here: CC(C)=CCC/C(C)=C/CC[C@]1(C)Oc2c(c(O)cc3c2CN(c2c(O)cccc2C(=O)O)C3=O)C[C@@H]1O
Not met

###

target_or_system: Glu-plg (Homo sapiens)
Construct: 0.1 mM VLK-pNA, 50 nM Glu-plg and 50 U/ml u-PA
assay_overview: Plasminogen (plg) activation enhancing activity by urokinase catalysis, VLK-pNA chromogenic assay (Example 30, Table 24)
Format: biochemical
test_settings: concentration giving 10-fold enhancement of plasminogen activation vs control without SMTP compound (=1); 0.1 mM VLK-pNA, 50 nM Glu-plg, 50 U/ml u-PA, 37° C.
Measured 10-Fold enhancing activity: Concentration by weight of individual entries
Reply numerically in μg/ml, unit not repeated.

Below: 4 compounds and their reported 10-Fold enhancing activity: Concentration by weight.
CC(C)=CCC/C(C)=C/CC[C@]1(C)Oc2c(c(O)cc3c2CN([C@@H](Cc2ccc(O)cc2)C(=O)O)C3=O)C[C@H]1O [Compound I-26]
42
CC(C)=CCC/C(C)=C/CC[C@]1(C)Oc2c(c(O)cc3c2CN(c2ccc(C(=O)O)cc2O)C3=O)C[C@@H]1O [Compound I-6]
68
CC(C)=CCC/C(C)=C/CC[C@]1(C)Oc2c(c(O)cc3c2CN(c2ccc(S(=O)(=O)O)cc2)C3=O)C[C@@H]1O [Compound I-19]
74
CC(C)=CCC/C(C)=C/CC[C@]1(C)Oc2c(c(O)cc3c2CN([C@@H](C(=O)O)c2ccc(O)cc2)C3=O)C[C@@H]1O [Compound I-23]
177

Could you now consider this next compound?
Sample CC(C)=CCC/C(C)=C/CC[C@]1(C)Oc2c(c(O)cc3c2CN([C@H](C(=O)O)c2ccc(O)cc2)C3=O)C[C@@H]1O [Compound I-22] ; 10-Fold enhancing activity: Concentration by weight observed: 113
